- Test system: HCT116 (human colon carcinoma) cells
- method: HCT116 cytotoxicity assay (CellTiter-Glo)
- Format: cell-based
- measurement-conditions: HCT-116, 72 h, cytotoxicity, three days culture, read-out: HCT116 IC50
Property: IC50; scope: individual molecules
measurement-type: IC50 (µM)

>  <molecule>
NC(=O)/C(=C1\Nc2ccccc2S1)c1nc(-c2ccccn2)cc(C(F)(F)F)n1 [Compound 11A]

>  <numeric-value>
4

$$$$
>  <molecule>
COC(=O)c1cnc(C(C(N)=O)=C2Nc3ccccc3N2)nc1C(F)(F)F

>  <numeric-value>
2

$$$$
>  <molecule>
CN1CCN(Cc2ccc3c(c2)S/C(=C(/C(N)=O)c2nccc(C(F)(F)F)n2)N3)CC1 [Compound 93A]

>  <numeric-value>
0.3

$$$$
>  <molecule>
NC(=O)/C(=C1\Nc2ccc(-c3cccnc3)cc2S1)c1nccc(C(F)(F)F)n1 [Compound 108A]

>  <numeric-value>
2

$$$$
>  <molecule>
NCCCNC(=O)c1ccc2c(c1)S/C(=C(/C(N)=O)c1nccc(C(F)(F)F)n1)N2 [Compound 65A]

>  <numeric-value>
0.2

$$$$
>  <molecule>
NC(=O)C(=C1Nc2ccc(C(=O)NCCCN3CCOCC3)cc2N1)c1nccc(C(F)(F)F)n1 (single isomer, unassigned) [Compound 39A]

>  <numeric-value>
0.3

$$$$
>  <molecule>
CN1CCN(CCC(=O)Nc2ccc3c(c2)N/C(=C(/C(N)=O)c2nccc(C(F)(F)F)n2)N3)CC1 [Compound 83A]

>  <numeric-value>
0.2

$$$$

---

Property: pIC50; scope: individual compounds
- System: HCT116 (human colon carcinoma) cells
- method: HCT116 cytotoxicity assay (CellTiter-Glo)
- Type: cell-based
- measurement-conditions: HCT-116, 72 h, cytotoxicity, three days culture, read-out: HCT116 IC50
pIC50: −log10 of the molar value.
measurement-type: pIC50

>  <compound>
CN1CCN(CCNC(=O)c2ccc3c(c2)S/C(=C(/C(N)=O)c2nccc(C(F)(F)F)n2)N3)CC1 [Compound 57A]

>  <tgt>
HCT116 (human colon carcinoma) cells

>  <measurement-type>
pIC50

>  <bound-sign>
=

>  <numeric-value>
7.00

$$$$
>  <compound>
Cc1cc2c(cc1C)NC(=C(C(N)=O)c1ncc(C(=O)NCCN3CCOCC3)c(C(F)(F)F)n1)N2 [Compound 136A]

>  <tgt>
HCT116 (human colon carcinoma) cells

>  <measurement-type>
pIC50

>  <bound-sign>
=

>  <numeric-value>
6.10

$$$$
>  <compound>
CCN(CC)CC(=O)Nc1ccc2c(c1)N/C(=C(/C(N)=O)c1nccc(C(F)(F)F)n1)N2 [Compound 75A]

>  <tgt>
HCT116 (human colon carcinoma) cells

>  <measurement-type>
pIC50

>  <bound-sign>
=

>  <numeric-value>
6.00

$$$$
>  <compound>
NC(=O)/C(=C1\Nc2ccc(NC(=O)CCCN3CCOCC3)cc2N1)c1nccc(C(F)(F)F)n1 [Compound 85A]

>  <tgt>
HCT116 (human colon carcinoma) cells

>  <measurement-type>
pIC50

>  <bound-sign>
=

>  <numeric-value>
6.52

$$$$
>  <compound>
NC(=O)/C(=C1\Nc2ccc(C(=O)NCCn3ccnc3)cc2S1)c1nccc(C(F)(F)F)n1 [Compound 47A]

>  <tgt>
HCT116 (human colon carcinoma) cells

>  <measurement-type>
pIC50

>  <bound-sign>
=

>  <numeric-value>
6.52

$$$$
>  <compound>
CN1CCCC[C@H]1C(=O)Nc1ccc2c(c1)N/C(=C(/C(N)=O)c1nccc(C(F)(F)F)n1)N2 [Compound 142A]

>  <tgt>
HCT116 (human colon carcinoma) cells

>  <measurement-type>
pIC50

>  <bound-sign>
=

>  <numeric-value>
6.52

$$$$
>  <compound>
NC(=O)/C(=C1\Nc2ccc(NC(=O)C3(N)CC3)cc2N1)c1nccc(C(F)(F)F)n1 [Compound 34A]

>  <tgt>
HCT116 (human colon carcinoma) cells

>  <measurement-type>
pIC50

>  <bound-sign>
=

>  <numeric-value>
6.22

$$$$
>  <compound>
NC(=O)/C(=C1\Nc2ccccc2S1)c1nc(-c2cccnc2)cc(C(F)(F)F)n1 [Compound 10A]

>  <tgt>
HCT116 (human colon carcinoma) cells

>  <measurement-type>
pIC50

>  <bound-sign>
=

>  <numeric-value>
6.00

$$$$
>  <compound>
NC(=O)/C(=C1\Nc2cc(F)c(C(=O)NCCCN3CCOCC3)cc2S1)c1nccc(C(F)(F)F)n1 [Compound 50A]

>  <tgt>
HCT116 (human colon carcinoma) cells

>  <measurement-type>
pIC50

>  <bound-sign>
=

>  <numeric-value>
6.52

$$$$
>  <compound>
NC(=O)/C(=C1\Nc2ccc(CCN3CCC(F)(F)CC3)cc2S1)c1nccc(C(F)(F)F)n1 [Compound 104A]

>  <tgt>
HCT116 (human colon carcinoma) cells

>  <measurement-type>
pIC50

>  <bound-sign>
=

>  <numeric-value>
5.52

$$$$
>  <compound>
NC(=O)/C(=C1\Nc2ccc(-c3ccccn3)cc2N1)c1nccc(C(F)(F)F)n1 [Compound 109A]

>  <tgt>
HCT116 (human colon carcinoma) cells

>  <measurement-type>
pIC50

>  <bound-sign>
=

>  <numeric-value>
5.52

$$$$
>  <compound>
CCN(CCCN1CCOCC1)C(=O)c1ccc2c(c1)N/C(=C(/C(N)=O)c1nccc(C(F)(F)F)n1)N2 [Compound 41A]

>  <tgt>
HCT116 (human colon carcinoma) cells

>  <measurement-type>
pIC50

>  <bound-sign>
=

>  <numeric-value>
6.15

$$$$
>  <compound>
NC(=O)/C(=C1\Nc2ccccc2S1)c1nc(C(F)(F)F)cc(C(F)(F)F)n1 [Compound 9A]

>  <tgt>
HCT116 (human colon carcinoma) cells

>  <measurement-type>
pIC50

>  <bound-sign>
<

>  <numeric-value>
4.70

$$$$
>  <compound>
NC(=O)/C(=C1\Nc2ccc(OCCCN3CCOCC3)cc2S1)c1nccc(C(F)(F)F)n1 [Compound 113A]

>  <tgt>
HCT116 (human colon carcinoma) cells

>  <measurement-type>
pIC50

>  <bound-sign>
=

>  <numeric-value>
6.22

$$$$
>  <compound>
NC(=O)/C(=C1\Nc2ccc(C(=O)N3CCNCC3)cc2N1)c1nccc(C(F)(F)F)n1 [Compound 60A]

>  <tgt>
HCT116 (human colon carcinoma) cells

>  <measurement-type>
pIC50

>  <bound-sign>
=

>  <numeric-value>
6.70

$$$$
>  <compound>
CN1CCN(c2ccc3c(c2)N/C(=C(/C(N)=O)c2nccc(C(F)(F)F)n2)N3)CC1 [Compound 119A]

>  <tgt>
HCT116 (human colon carcinoma) cells

>  <measurement-type>
pIC50

>  <bound-sign>
=

>  <numeric-value>
6.00

$$$$
>  <compound>
COc1ccnc(C(C(N)=O)=C2Nc3ccccc3N2)n1 [Compound 17A]

>  <tgt>
HCT116 (human colon carcinoma) cells

>  <measurement-type>
pIC50

>  <bound-sign>
=

>  <numeric-value>
5.30

$$$$
>  <compound>
NC(=O)/C(=C1\Nc2ccc(N3CCC(N4CCCCC4)CC3)cc2S1)c1nccc(C(F)(F)F)n1 [Compound 121A]

>  <tgt>
HCT116 (human colon carcinoma) cells

>  <measurement-type>
pIC50

>  <bound-sign>
=

>  <numeric-value>
6.00

$$$$
>  <compound>
COC(=O)c1cnc(/C(C(N)=O)=C2/Nc3ccccc3S2)nc1C(F)(F)F [Compound 3A]

>  <tgt>
HCT116 (human colon carcinoma) cells

>  <measurement-type>
pIC50

>  <bound-sign>
=

>  <numeric-value>
5.52

$$$$
>  <compound>
NC(=O)/C(=C1\Nc2ccc(C(=O)NC3CCNCC3)cc2S1)c1nccc(C(F)(F)F)n1 [Compound 71A]

>  <tgt>
HCT116 (human colon carcinoma) cells

>  <measurement-type>
pIC50

>  <bound-sign>
=

>  <numeric-value>
6.70

$$$$
>  <compound>
CN1CCN(CCOc2ccc3c(c2)S/C(=C(/C(N)=O)c2nccc(C(F)(F)F)n2)N3)CC1 [Compound 114A]

>  <tgt>
HCT116 (human colon carcinoma) cells

>  <measurement-type>
pIC50

>  <bound-sign>
=

>  <numeric-value>
6.22

$$$$
>  <compound>
NC(=O)/C(=C1\Nc2ccccc2S1)c1ncc(C(=O)NCCN2CCOCC2)c(C(F)(F)F)n1 [Compound 134A]

>  <tgt>
HCT116 (human colon carcinoma) cells

>  <measurement-type>
pIC50

>  <bound-sign>
=

>  <numeric-value>
5.40

$$$$
>  <compound>
NC(=O)/C(=C1\Nc2ccc(NCCN3CCOCC3)cc2S1)c1nccc(C(F)(F)F)n1 [Compound 124A]

>  <tgt>
HCT116 (human colon carcinoma) cells

>  <measurement-type>
pIC50

>  <bound-sign>
<

>  <numeric-value>
4.70

$$$$
>  <compound>
CN(CCN1CCCCC1)c1ccc2c(c1)S/C(=C(/C(N)=O)c1nccc(C(F)(F)F)n1)N2 [Compound 125A]

>  <tgt>
HCT116 (human colon carcinoma) cells

>  <measurement-type>
pIC50

>  <bound-sign>
=

>  <numeric-value>
5.52

$$$$
>  <compound>
Cc1cc2c(cc1C)NC(=C(C(N)=O)c1ncc(C(=O)NCCCN3CCOCC3)c(C(F)(F)F)n1)N2 [Compound 133A]

>  <tgt>
HCT116 (human colon carcinoma) cells

>  <measurement-type>
pIC50

>  <bound-sign>
=

>  <numeric-value>
6.10

$$$$
>  <compound>
CCc1cnc(/C(C(N)=O)=C2/Nc3ccccc3S2)nc1 [Compound 21A]

>  <tgt>
HCT116 (human colon carcinoma) cells

>  <measurement-type>
pIC50

>  <bound-sign>
=

>  <numeric-value>
4.70

$$$$
>  <compound>
NC(=O)/C(=C1\Nc2ccc(NC(=O)CCN3CCOCC3)cc2N1)c1nccc(C(F)(F)F)n1 [Compound 84A]

>  <tgt>
HCT116 (human colon carcinoma) cells

>  <measurement-type>
pIC50

>  <bound-sign>
=

>  <numeric-value>
6.70

$$$$
>  <compound>
Cc1ccnc(/C(C(N)=O)=C2/Nc3ccccc3S2)n1 [Compound 18A]

>  <tgt>
HCT116 (human colon carcinoma) cells

>  <measurement-type>
pIC50

>  <bound-sign>
=

>  <numeric-value>
4.70

$$$$
>  <compound>
NC(=O)/C(=C1\Nc2ccc(C(=O)N3CC[C@@H](N)C3)cc2S1)c1nccc(C(F)(F)F)n1 [Compound 69A]

>  <tgt>
HCT116 (human colon carcinoma) cells

>  <measurement-type>
pIC50

>  <bound-sign>
=

>  <numeric-value>
7.05

$$$$
>  <compound>
NC(=O)/C(=C1\Nc2ccc(C(=O)N3CCNCC3)cc2S1)c1nccc(C(F)(F)F)n1 [Compound 61A]

>  <tgt>
HCT116 (human colon carcinoma) cells

>  <measurement-type>
pIC50

>  <bound-sign>
=

>  <numeric-value>
7.00

$$$$
>  <compound>
NC(=O)C(=C1Nc2ccc(N)cc2S1)c1nccc(C(F)(F)F)n1 (single isomer, unassigned) [Compound 32A]

>  <tgt>
HCT116 (human colon carcinoma) cells

>  <measurement-type>
pIC50

>  <bound-sign>
=

>  <numeric-value>
5.30

$$$$

Source: patent US8129396B2
